TGT: pooled human IgG (human IgG1, 2, 3 and 4)
Catalogue of proteins with associated Enzyme Activity Endpoint Assay: scIgG
RECORDED_ENDPOINT: Enzyme Activity Endpoint Assay: scIgG

PROTEIN	RECORDED_ENDPOINT	VALUE_REPORTED
PRT-247 (protein) MVTSVWTKGVTPPANFTQGEDVFHAPYVANQGWYDITKLFNGKDDLLCGAATAGNMLHWWFDQNKDQIKRYLEEHPEKQKINFNGEQMFDVKEAIDTKNHQLDSKLFEYFLEKAFPYLSTKHLGVFPDHVIDMFINGYRLSLTNHGPTPVKEGSKDPRGGIFDAVFTRGDQSKLLTSRHDFKEKNLKEISDLIKKELTEGKALGLSHTYANVRINHVINLWGADFDSNGNLKAIAVTDSDSNASIGMKKYFVGVNSSGKVAISAKEIKEDNIGAQVLGLFTLSTGQDSWNQTN	Enzyme Activity Endpoint Assay: scIgG	279 ng/µL
PRT-479 (protein) MITSVWTKGVTPPTDFIYGEDVLHAPYKAGQGWYDITKAFDGGDDLLCGAATAGNMLHWWFDQNKEQIENYLKKHPEKQKINFNGEQMFDVKEAIDTKDSQTNSELFNYFKEKAFPYLSTKHLGVFPDHVIDMFINGYRLSLTNHGPTPVKRQEKDPRGGIFDAVFGRGDQTKLLTNRHDLKNKTLNEISQLIKQELTEGKALGISHTYANVRINHVINLWGADFDAEGNLEAIYVTDSDSNASIGMKKYFVGVNSNGKVAISAKEIEEDNIGAQVLGLFTLSTGQKIWNKTNLEHHHHHH	Enzyme Activity Endpoint Assay: scIgG	0 ng/µL
